Cited source: PubChem BioAssay (NCI)

Exercise: state measured TGI for each of the compounds provided.
Tested on: NCI-H226 lung
assay.remarks: NCI tumour cell line growth inhibition, 48 h

Worked cases, TGI given:
CCOc1cn(C2OC(CO)C(O)C2O)c(=O)[nH]c1=O (stereo unspecified) :: > 100 µM
COC1(C)C(=O)N2C1N(C(=O)OC(C)(C)C)CC2(C)C (stereo unspecified) :: > 100 µM
O/N=C(/CC(O)(C(F)(F)F)C(F)(F)F)c1ccccc1 :: > 10 µM
CSc1ccc2c(cc1=O)[C@@H](NC(=O)c1ccc(Cl)cc1)CCc1cc(O)c(O)c(O)c1-2 :: > 100 µM
O=C(O)C1(Cc2ccccc2)Cc2cc3c(cc2C1)CCC3 :: > 100 µM

Next:
TGI reported for this compound `COc1ccc2c(C)c(Oc3c(Cl)c(Cl)c(O)c(C#N)c3C#N)oc2c1` : > 100 µM
